Test system: A498
method: NCI tumour cell line growth inhibition, 48 h
Active and inactive are the calls of the source. Rule as the data show it: active = GI50 up to about 1.1 µM and inactive = higher.
As shown below, each of these compounds has a reported GI50 value.

>>> result("Clc1ccc(C2=Nc3ccccc3SC(c3ccc(Cl)c(Cl)c3)C2)c(Cl)c1 (stereo unspecified)")
"20.6 µM (inactive)"
>>> result("COc1ccccc1NC(=S)Nc1cc(C)ccn1")
"> 100 µM (inactive)"
>>> result("Cc1ccc(N2CCN(CCC(=O)O)CC2)cc1")
"> 100 µM (inactive)"
>>> result("COc1ccc(/C=C2\\CCC(CNc3cc(C)on3)C2=O)cc1 (stereo unspecified)")
"> 72.4 µM (inactive)"
>>> result("CC(C)(C)CC(C)(C)NCC(O)COc1ccc(C(C)(C)c2ccc(OCC(O)CNC(C)(C)CC(C)(C)C)cc2)cc1 (stereo unspecified)")
"1.58 µM (inactive)"

# compound "CC(=O)c1c2c(cc3c1CCC3)CCC2" ; its GI50 = 36.5 µM (inactive)

----------
As shown below, each of these compounds has a reported GI50 value.
Test system: CAKI-1
method: NCI tumour cell line growth inhibition, 48 h
Activity calls are given as the source filed them. Rule as the data show it: active = GI50 up to about 1.1 µM and inactive = higher.

>>> result("Nc1ccc(-c2nc3cc(F)ccc3s2)cc1Cl")
"8.67 µM (inactive)"
>>> result("O=C1Nc2cccc(Cl)c2/C1=C\\c1c(Cl)nc2sccn12")
"43.2 µM (inactive)"
>>> result("NC1=NC(=O)[C@H](Cc2c[nH]c3ccccc23)N1C(=O)OCc1ccccc1")
"> 100 µM (inactive)"
>>> result("Cc1ccc(S(=O)(=O)N/N=C2\\CCCCC23CCC(=O)NC3)cc1 (stereo not given)")
"> 100 µM (inactive)"
>>> result("Cc1ccc(C2=CC(=O)/C(=C\\C(=O)c3ccc(Br)cc3)O2)c(C)c1")
"3.04 µM (inactive)"
>>> result("CN(C)C(=S)/N=c1\\ss/c(=N\\C(=S)N(C)C)n1Cc1ccco1")
"> 100 µM (inactive)"

Item Cc1ccc(C2COc3cc(O)c(O)cc3C2)cc1 (stereo not given) was tested on CAKI-1; the reported GI50 is 15.9 µM (inactive)

Item "NC(=S)N1N=C2c3ccccc3CC[C@@H]2[C@@H]1c1ccccc1" was tested on CAKI-1; the reported GI50 is 5.01 µM (inactive)

Item CCOC(=O)NC(Nc1ccc(S(=O)(=O)Nc2nc(C)cc(C)n2)cc1)(C(=O)OCC)C(F)(F)F (stereo not given) was tested on CAKI-1; the reported GI50 is > 100 µM (inactive)

Item COc1cc(C(c2cc3c(cc2O)OCO3)N2CCCCC2)cc(OC)c1OC (stereo not given) was tested on CAKI-1; the reported GI50 is 12.1 µM (inactive)

----------
System: LOX IMVI
method: NCI tumour cell line growth inhibition, 48 h
The source made the active and inactive calls. Cut-off read from the data, not from the text of the source: active = GI50 up to about 1.1 µM and inactive = higher.
Outcomes you can answer with include only these: active, inactive

I'd appreciate the recorded outcome for "CCOC(=O)c1[nH]c2c(OC)n[n+]([O-])cc2c1[N+](=O)[O-]" from this test.
inactive

I'd appreciate the recorded outcome for "CCN(CC)CCn1nc(N)c2nc3cc(Cl)ccc3nc21" from this test.
inactive

I'd appreciate the recorded outcome for "COc1ccccc1NC(=S)N/N=C(/C)c1ccccn1" from this test.
active

I'd appreciate the recorded outcome for "Cn1c2ccccc2c2c(=S)c3ccccc3ccc21" from this test.
inactive

I'd appreciate the recorded outcome for "CCc1ccc2c(c1)/C(=C1/Nc3ccccc3/C1=N/O)C(=O)N2" from this test.
inactive

I'd appreciate the recorded outcome for "CC(C)c1cc(Cl)nc(Cl)n1" from this test.
inactive

I'd appreciate the recorded outcome for "CN(C)CC(C)(C)/C(=N\Nc1ccccc1)c1ccccc1" from this test.
inactive

The measured values listed here are drawn from ChEMBL document CHEMBL1201862.
